// provenance: PubChem BioAssay (NCI)

This section presents molecules with their documented TGI values.
System: 786-0 renal
ASSAY_OVERVIEW: NCI tumour cell line growth inhibition, 48 h

- MOLECULE: "C(=C\\C(SCc1ccccc1)SCc1ccccc1)/c1ccccc1"
  TESTED_SYSTEM: "786-0 renal"
  TGI: "> 10 µM"
- MOLECULE: "CCOc1cc(NC(C)=O)ccc1C(=O)NN1C(=O)/C(=C/c2cc(OC)c(OC)c(OC)c2)N=C1c1ccccc1"
  TESTED_SYSTEM: "786-0 renal"
  TGI: "> 100 µM"
- MOLECULE: "CC(=O)Nc1ccc2[nH]c(-c3cccc(F)c3)cc(=O)c2c1"
  TESTED_SYSTEM: "786-0 renal"
  TGI: "> 100 µM"
- MOLECULE: "O=c1[nH]nc(Cc2ccccc2)n1Nc1ccccc1"
  TESTED_SYSTEM: "786-0 renal"
  TGI: "> 100 µM"
- MOLECULE: "Cc1ccc(C(O)c2cnc(C)n2Cc2ccccc2)cc1 (stereo unspecified)"
  TESTED_SYSTEM: "786-0 renal"
  TGI: "> 100 µM"
- MOLECULE: "Cc1cc2c3ccccc3n(C)c2c2c1C(=O)C=CC2=O"
  TESTED_SYSTEM: "786-0 renal"
  TGI: "13.4 µM"
- MOLECULE: "Clc1nc(Cl)c2ncn(Cc3ccc(COc4cccc(OCc5ccc(Cn6cnc7c(Cl)nc(Cl)nc76)cc5)c4)cc3)c2n1"
  TESTED_SYSTEM: "786-0 renal"
  TGI: "> 100 µM"
- MOLECULE: "COc1cc(/C=C/C(=O)c2sc(Nc3ccccc3)nc2C)ccc1O"
  TESTED_SYSTEM: "786-0 renal"
  TGI: "> 100 µM"
- MOLECULE: "C=CC[C@H]1[C@H](O[Si](C)(C)C(C)(C)C)C=CC(=O)[C@@H]1CC(=O)N(Cc1ccccc1)Cc1ccccc1"
  TESTED_SYSTEM: "786-0 renal"
  TGI: "84.9 µM"
- MOLECULE: "O=C(O)c1cc(=O)c2[nH]c3ccccc3c2s1"
  TESTED_SYSTEM: "786-0 renal"
  TGI: "> 100 µM"
- MOLECULE: "Cc1cccc(NC(=S)N=Nc2c(O)[nH]c3ccccc23)c1"
  TESTED_SYSTEM: "786-0 renal"
  TGI: "> 100 µM"
- MOLECULE: "CSc1nc2c(nc(N)n2C2OCC(O)C(O)C2O)c(=O)n1C (stereo unspecified)"
  TESTED_SYSTEM: "786-0 renal"
  TGI: "> 100 µM"
- MOLECULE: "CNC(=S)N/N=C/c1cccc(C)n1"
  TESTED_SYSTEM: "786-0 renal"
  TGI: "98.5 µM"
- MOLECULE: "CC(C)C[P+](c1ccccc1)(c1ccccc1)c1ccccc1"
  TESTED_SYSTEM: "786-0 renal"
  TGI: "> 100 µM"
- MOLECULE: "N[C@H](C(=O)O)[C@H](Cl)CC(=O)O"
  TESTED_SYSTEM: "786-0 renal"
  TGI: "> 100 µM"
- MOLECULE: "CCN(CC)C(=S)SS(=O)(=O)c1ccc([N+](=O)[O-])cc1"
  TESTED_SYSTEM: "786-0 renal"
  TGI: "32.4 µM"
- MOLECULE: "COC(=O)C1C2C=CC(C2)N1[C@@H](C)c1ccccc1 (stereo partly specified)"
  TESTED_SYSTEM: "786-0 renal"
  TGI: "> 100 µM"
- MOLECULE: "Cc1ccc(S(N)(=O)=O)cc1"
  TESTED_SYSTEM: "786-0 renal"
  TGI: "> 1000 µM"
- MOLECULE: "COC(=O)/N=[N+](\\[O-])C(c1ccc(OC)cc1)C1CCCCC1 (stereo unspecified)"
  TESTED_SYSTEM: "786-0 renal"
  TGI: "32.4 µM"
- MOLECULE: "C=CC[C@H](C)CCC(=O)N1[C@H]2CC3CC[C@@]2(CS1(=O)=O)C3(C)C"
  TESTED_SYSTEM: "786-0 renal"
  TGI: "> 100 µM"
- MOLECULE: "CC(C)C1CC(O)O[C@@H]([C@@H](C)[C@H]2CC(=O)[C@@H]3[C@@H]4[C@@H](O)[C@H](O)[C@H]5[C@@H](O)[C@H](O)CC[C@]5(C)[C@H]4CC[C@]23C)C1 (stereo partly specified)"
  TESTED_SYSTEM: "786-0 renal"
  TGI: "> 100 µM"
